# key: entry, value: viability, T/C
# Test system: PANC-1 complex spheroid growth, percent test/control
# METHOD_NOTES: Anticancer human tumor PANC-1 cell line growth inhibition [Asc];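 note: spheroids exposed to agents for 7 days; percent viability relative to DMSO vehicle wells taken as 100%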
# TEST_PARAMETERS: second compound 0.0316 µM; first compound 0.00949 µM; stronger effect = lower value

COMPOUND | viability, T/C
NC(=O)C(=Cn1cnc(-c2cc(C(F)(F)F)cc(C(F)(F)F)c2)n1)c1cncnc1 + Cc1c(S(C)(=O)=O)c(-c2cc(F)cc(N3CCN(c4ccc(NS(=O)(=O)c5ccc(NC(CCN6CCC(C(=O)OCCCP(=O)(O)O)CC6)CSc6ccccc6)c(S(=O)(=O)C(F)(F)F)c5)cc4)CC3)c2)c(-c2ccc(Cl)cc2)n1C(C)C | 93.7%
CCN1C(C(=O)NC23CCC(C(=O)O)(CC2)CC3)C(c2cccc(Cl)c2F)C2(C(=O)Nc3cc(Cl)ccc32)C12CCCCC2 (configuration not stated) + CNC(C)C(=O)NC1CN(S(=O)(=O)c2cccc(S(=O)(=O)N3CCC4CCC(C(=O)NC(c5ccccc5)c5ccccc5)N4C(=O)C(NC(=O)C(C)NC)C3)c2)CCC2CCC(C(=O)NC(c3ccccc3)c3ccccc3)N2C1=O | 97.2%

* * *

# Test system: PANC-1 complex spheroid growth, percent test/control
# METHOD_NOTES: Anticancer human tumor PANC-1 cell line growth inhibition [Asc];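 note: spheroids exposed to agents for 7 days; percent viability relative to DMSO vehicle wells taken as 100%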
# TEST_PARAMETERS: second compound 0.1 µM; first compound 3 µM; stronger effect = lower value
MEASURED_PROPERTY: viability, T/C (%)

MOLECULE | TESTED_SYSTEM | UNIT_NAME | ENDPOINT_VALUE
CCN1C(C(=O)NC23CCC(C(=O)O)(CC2)CC3)C(c2cccc(Cl)c2F)C2(C(=O)Nc3cc(Cl)ccc32)C12CCCCC2 (centres undefined) + CNC(C)C(=O)NC1CN(S(=O)(=O)c2cccc(S(=O)(=O)N3CCC4CCC(C(=O)NC(c5ccccc5)c5ccccc5)N4C(=O)C(NC(=O)C(C)NC)C3)c2)CCC2CCC(C(=O)NC(c3ccccc3)c3ccccc3)N2C1=O | PANC-1 complex spheroid growth, percent test/control | % | 121
Cc1nc(N2CCC3(CC2)COC(C)C3N)c(CO)nc1Sc1ccnc(N)c1Cl (centres undefined) + CNC(C)C(=O)NC1CN(S(=O)(=O)c2cccc(S(=O)(=O)N3CCC4CCC(C(=O)NC(c5ccccc5)c5ccccc5)N4C(=O)C(NC(=O)C(C)NC)C3)c2)CCC2CCC(C(=O)NC(c3ccccc3)c3ccccc3)N2C1=O | PANC-1 complex spheroid growth, percent test/control | % | 89.5
CCN1C(C(=O)NC23CCC(C(=O)O)(CC2)CC3)C(c2cccc(Cl)c2F)C2(C(=O)Nc3cc(Cl)ccc32)C12CCCCC2 (centres undefined) + Cc1c(S(C)(=O)=O)c(-c2cc(F)cc(N3CCN(c4ccc(NS(=O)(=O)c5ccc(NC(CCN6CCC(C(=O)OCCCP(=O)(O)O)CC6)CSc6ccccc6)c(S(=O)(=O)C(F)(F)F)c5)cc4)CC3)c2)c(-c2ccc(Cl)cc2)n1C(C)C | PANC-1 complex spheroid growth, percent test/control | % | 123
Cc1nc(N2CCC3(CC2)COC(C)C3N)c(CO)nc1Sc1ccnc(N)c1Cl (centres undefined) + Cc1c(S(C)(=O)=O)c(-c2cc(F)cc(N3CCN(c4ccc(NS(=O)(=O)c5ccc(NC(CCN6CCC(C(=O)OCCCP(=O)(O)O)CC6)CSc6ccccc6)c(S(=O)(=O)C(F)(F)F)c5)cc4)CC3)c2)c(-c2ccc(Cl)cc2)n1C(C)C | PANC-1 complex spheroid growth, percent test/control | % | 84.7

* * *

# System: PANC-1 complex spheroid growth, percent test/control
# METHOD_NOTES: Anticancer human tumor PANC-1 cell line growth inhibition [Asc];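 note: spheroids exposed to agents for 7 days; percent viability relative to DMSO vehicle wells taken as 100%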
# TEST_PARAMETERS: second compound 3.16 µM; first compound 0.0316 µM; stronger effect = lower value

COMPOUND | UNIT_NAME | viability, T/C
C=C(F)C(=O)N1CCN(c2nc(OCC3CCCN3C)nc3c2CCN(c2cccc4cccc(Cl)c24)C3)CC1CC#N (configuration not stated) + Cc1c(S(C)(=O)=O)c(-c2cc(F)cc(N3CCN(c4ccc(NS(=O)(=O)c5ccc(NC(CCN6CCC(C(=O)OCCCP(=O)(O)O)CC6)CSc6ccccc6)c(S(=O)(=O)C(F)(F)F)c5)cc4)CC3)c2)c(-c2ccc(Cl)cc2)n1C(C)C | % | 104
Cn1ncnc1[C@H]1c2n[nH]c(=O)c3cc(F)cc(c23)N[C@@H]1c1ccc(F)cc1 + Cc1c(S(C)(=O)=O)c(-c2cc(F)cc(N3CCN(c4ccc(NS(=O)(=O)c5ccc(NC(CCN6CCC(C(=O)OCCCP(=O)(O)O)CC6)CSc6ccccc6)c(S(=O)(=O)C(F)(F)F)c5)cc4)CC3)c2)c(-c2ccc(Cl)cc2)n1C(C)C | % | 112
CNC(C)C(=O)NC1CN(S(=O)(=O)c2cccc(S(=O)(=O)N3CCC4CCC(C(=O)NC(c5ccccc5)c5ccccc5)N4C(=O)C(NC(=O)C(C)NC)C3)c2)CCC2CCC(C(=O)NC(c3ccccc3)c3ccccc3)N2C1=O (configuration not stated) + Cc1c(S(C)(=O)=O)c(-c2cc(F)cc(N3CCN(c4ccc(NS(=O)(=O)c5ccc(NC(CCN6CCC(C(=O)OCCCP(=O)(O)O)CC6)CSc6ccccc6)c(S(=O)(=O)C(F)(F)F)c5)cc4)CC3)c2)c(-c2ccc(Cl)cc2)n1C(C)C | % | 103
NC1CCC(NC2CC2c2ccccc2)CC1 (configuration not stated) + Cc1c(S(C)(=O)=O)c(-c2cc(F)cc(N3CCN(c4ccc(NS(=O)(=O)c5ccc(NC(CCN6CCC(C(=O)OCCCP(=O)(O)O)CC6)CSc6ccccc6)c(S(=O)(=O)C(F)(F)F)c5)cc4)CC3)c2)c(-c2ccc(Cl)cc2)n1C(C)C | % | 109
O=C(c1cc(Cc2n[nH]c(=O)c3ccccc23)ccc1F)N1CCN(C(=O)C2CC2)CC1 + Cc1c(S(C)(=O)=O)c(-c2cc(F)cc(N3CCN(c4ccc(NS(=O)(=O)c5ccc(NC(CCN6CCC(C(=O)OCCCP(=O)(O)O)CC6)CSc6ccccc6)c(S(=O)(=O)C(F)(F)F)c5)cc4)CC3)c2)c(-c2ccc(Cl)cc2)n1C(C)C | % | 103
C=CC(=O)N1CCN(c2nc(=O)n(-c3c(C)ccnc3C(C)C)c3nc(-c4c(O)cccc4F)c(F)cc23)C(C)C1 (configuration not stated) + Cc1c(S(C)(=O)=O)c(-c2cc(F)cc(N3CCN(c4ccc(NS(=O)(=O)c5ccc(NC(CCN6CCC(C(=O)OCCCP(=O)(O)O)CC6)CSc6ccccc6)c(S(=O)(=O)C(F)(F)F)c5)cc4)CC3)c2)c(-c2ccc(Cl)cc2)n1C(C)C | % | 107
C#Cc1c(F)ccc2cc(O)cc(-c3ncc4c(N5CC6CCC(C5)N6)nc(OCC56CCCN5CC(F)C6)nc4c3F)c12 (configuration not stated) + Cc1c(S(C)(=O)=O)c(-c2cc(F)cc(N3CCN(c4ccc(NS(=O)(=O)c5ccc(NC(CCN6CCC(C(=O)OCCCP(=O)(O)O)CC6)CSc6ccccc6)c(S(=O)(=O)C(F)(F)F)c5)cc4)CC3)c2)c(-c2ccc(Cl)cc2)n1C(C)C | % | 72.4

* * *

# Tested on: PANC-1 complex spheroid growth, percent test/control
# METHOD_NOTES: Anticancer human tumor PANC-1 cell line growth inhibition [Asc];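 note: spheroids exposed to agents for 7 days; percent viability relative to DMSO vehicle wells taken as 100%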
# TEST_PARAMETERS: second compound 0.0316 µM; first compound 0.01 µM; stronger effect = lower value
# From the text: Multicellular complex tumor spheroid response to apoptosis pathway targeting inhibitors Alrizomadlin, Pelcitoclax, and Dasminapant in combination with a variety of drugs and investigational agents in selected tumor cell lines […] Compounds. […] If the clinical Cmax for an agent had not been determined, the highest concentration tested was 10 microM. […]
Simple rule here: viability, T/C less than 90% is Met, otherwise Not met.

COMPOUND | CLASS_LABEL
O=C(c1ccc(F)c(F)c1Nc1ccc(I)cc1F)N1CC(O)([C@@H]2CCCCN2)C1 + CNC(C)C(=O)NC1CN(S(=O)(=O)c2cccc(S(=O)(=O)N3CCC4CCC(C(=O)NC(c5ccccc5)c5ccccc5)N4C(=O)C(NC(=O)C(C)NC)C3)c2)CCC2CCC(C(=O)NC(c3ccccc3)c3ccccc3)N2C1=O | Met
Cn1ncnc1[C@H]1c2n[nH]c(=O)c3cc(F)cc(c23)N[C@@H]1c1ccc(F)cc1 + CNC(C)C(=O)NC1CN(S(=O)(=O)c2cccc(S(=O)(=O)N3CCC4CCC(C(=O)NC(c5ccccc5)c5ccccc5)N4C(=O)C(NC(=O)C(C)NC)C3)c2)CCC2CCC(C(=O)NC(c3ccccc3)c3ccccc3)N2C1=O | Not met
COc1c(OCCCN2CCOCC2)ccc2c3n(c(=NC(=O)c4cnc(N)nc4)nc12)CCN3 + Cc1c(S(C)(=O)=O)c(-c2cc(F)cc(N3CCN(c4ccc(NS(=O)(=O)c5ccc(NC(CCN6CCC(C(=O)OCCCP(=O)(O)O)CC6)CSc6ccccc6)c(S(=O)(=O)C(F)(F)F)c5)cc4)CC3)c2)c(-c2ccc(Cl)cc2)n1C(C)C | Not met
CCN1CCN(Cc2ccc(Nc3ncc(F)c(-c4cc(F)c5nc(C)n(C(C)C)c5c4)n3)nc2)CC1 + CNC(C)C(=O)NC1CN(S(=O)(=O)c2cccc(S(=O)(=O)N3CCC4CCC(C(=O)NC(c5ccccc5)c5ccccc5)N4C(=O)C(NC(=O)C(C)NC)C3)c2)CCC2CCC(C(=O)NC(c3ccccc3)c3ccccc3)N2C1=O | Not met
COc1c(OCCCN2CCOCC2)ccc2c3n(c(=NC(=O)c4cnc(N)nc4)nc12)CCN3 + CNC(C)C(=O)NC1CN(S(=O)(=O)c2cccc(S(=O)(=O)N3CCC4CCC(C(=O)NC(c5ccccc5)c5ccccc5)N4C(=O)C(NC(=O)C(C)NC)C3)c2)CCC2CCC(C(=O)NC(c3ccccc3)c3ccccc3)N2C1=O | Not met
CCN1CCN(Cc2ccc(Nc3ncc(F)c(-c4cc(F)c5nc(C)n(C(C)C)c5c4)n3)nc2)CC1 + Cc1c(S(C)(=O)=O)c(-c2cc(F)cc(N3CCN(c4ccc(NS(=O)(=O)c5ccc(NC(CCN6CCC(C(=O)OCCCP(=O)(O)O)CC6)CSc6ccccc6)c(S(=O)(=O)C(F)(F)F)c5)cc4)CC3)c2)c(-c2ccc(Cl)cc2)n1C(C)C | Not met
NC1CCC(NC2CC2c2ccccc2)CC1 (stereo unspecified) + CNC(C)C(=O)NC1CN(S(=O)(=O)c2cccc(S(=O)(=O)N3CCC4CCC(C(=O)NC(c5ccccc5)c5ccccc5)N4C(=O)C(NC(=O)C(C)NC)C3)c2)CCC2CCC(C(=O)NC(c3ccccc3)c3ccccc3)N2C1=O | Met
Cn1ncnc1[C@H]1c2n[nH]c(=O)c3cc(F)cc(c23)N[C@@H]1c1ccc(F)cc1 + Cc1c(S(C)(=O)=O)c(-c2cc(F)cc(N3CCN(c4ccc(NS(=O)(=O)c5ccc(NC(CCN6CCC(C(=O)OCCCP(=O)(O)O)CC6)CSc6ccccc6)c(S(=O)(=O)C(F)(F)F)c5)cc4)CC3)c2)c(-c2ccc(Cl)cc2)n1C(C)C | Not met

src = PubChem BioAssay AID1963435
